Catalogue of cellotriose produced values
# System Tested: NcLPMO9C (Neurospora crassa)
# Sequence (Q7SHI8 17-359): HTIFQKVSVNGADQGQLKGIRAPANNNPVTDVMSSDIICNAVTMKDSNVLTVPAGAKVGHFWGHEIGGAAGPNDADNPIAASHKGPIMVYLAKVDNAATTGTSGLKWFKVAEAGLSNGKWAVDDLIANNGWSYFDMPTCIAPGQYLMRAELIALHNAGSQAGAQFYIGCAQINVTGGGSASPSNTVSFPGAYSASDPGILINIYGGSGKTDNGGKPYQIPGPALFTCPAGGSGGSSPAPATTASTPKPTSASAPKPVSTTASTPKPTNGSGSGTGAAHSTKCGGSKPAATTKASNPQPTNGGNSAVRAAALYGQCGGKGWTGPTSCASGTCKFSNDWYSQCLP
# Particulars: - Ascorbic acid (blank); 4 h, 4 × 100 µM H2O2, 100 mM compound
Give your result in µM as a bare value.

O=C(O)C(=O)O [Oxalic acid] = 3.7
CC(=O)C(=O)O [Pyruvic acid] = 3.3
CC(O)C(=O)O (stereo not drawn) [Lactic acid] = 3.6
CC(=O)O [Acetic acid] = 4.3

**Query** Fill in the blank: the reported cellotriose produced of O=C(O)CC(O)(CC(=O)O)C(=O)O [Citric acid] is ____.
**Result** 4.2

**Query** Fill in the blank: the reported cellotriose produced of O=P(O)(O)O [Phosphoric acid] is ____.
**Result** 3.3

###

# System Tested: NcLPMO9C (Neurospora crassa, UniProt Q7SHI8)
# Sequence (Q7SHI8 17-359): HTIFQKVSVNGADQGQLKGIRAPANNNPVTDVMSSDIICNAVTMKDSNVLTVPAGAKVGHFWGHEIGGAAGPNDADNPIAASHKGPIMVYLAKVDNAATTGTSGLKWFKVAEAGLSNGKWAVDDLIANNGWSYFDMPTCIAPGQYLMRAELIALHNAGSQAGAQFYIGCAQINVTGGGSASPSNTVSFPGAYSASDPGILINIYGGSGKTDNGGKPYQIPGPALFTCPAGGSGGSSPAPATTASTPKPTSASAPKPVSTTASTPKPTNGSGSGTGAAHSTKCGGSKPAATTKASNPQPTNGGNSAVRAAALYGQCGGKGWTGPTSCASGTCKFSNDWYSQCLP
# Particulars: - Ascorbic acid (blank); 4 h, 4 × 100 µM H2O2, 100 mM compound
// assign 1 (yes) if cellotetraose produced falls strictly below 6 µM, else 0 (no) (ties count as 0 (no))

O=P(O)(O)O [Phosphoric acid] = 1 (yes)
CC(=O)O [Acetic acid] = 0 (no)
CC(O)C(=O)O (centres unmarked) [Lactic acid] = 1 (yes)

**Query** Dear colleague, could you confirm whether cellotetraose produced of O=C(O)C(=O)O [Oxalic acid] falls below 6 µM? Thanks.
**Result** 1 (yes)

###

# System Tested: NcLPMO9C (Neurospora crassa)
# Particulars: read-out: IC50 values as summarised in the text; for both assays (2,6-DMP and hydrocoerulignone), peroxidase reaction
Endpoint: IC50

**Query** Fill in the blank: the reported IC50 of O=S(=O)([O-])[O-].[Na+].[Na+] [Na2SO4] is ____.
**Result** ~30 mM

###

Catalogue of cellobiose produced values
# System Tested: UniProt:Q7SHI8
# Particulars: - Ascorbic acid (blank); 4 h, 4 × 100 µM H2O2, 100 mM compound
Give your result in µM as a bare value.

Past entries and their recorded results:
CC(O)C(=O)O (stereo not drawn) = 3.5
O=C(O)CC(O)(CC(=O)O)C(=O)O = 7.2
O=P(O)(O)O = 6.9
CC(=O)O = 4.2
CC(=O)C(=O)O = 5.6

Next:
**Query** Fill in the blank: the reported cellobiose produced of "O=C(O)C(=O)O" is ____.
**Result** 6.8
